Listing: TGI of selected compounds
# Test system: MDA-MB-231 breast
# procedureText: NCI tumour cell line growth inhibition, 48 h
valueType: TGI

Clc1ccc(Nc2nnc(CNc3ccc(-c4nnc(Nc5ccc(Cl)cc5)s4)cc3)s2)cc1    > 100 µM
CCN(CC)c1ccc(/C=C/C(=O)c2ccc(Nc3nc(Nc4ccccc4)nc(Nc4ccccc4)n3)cc2)cc1    > 100 µM
COc1cccc2c1-c1nc(N)c3c(OC)cccc3c1C2=O    > 100 µM
COc1ccc(-c2cc(-c3ccc(Nc4nc(Nc5ccccc5)nc(Nc5ccc(Cl)cc5)n4)cc3)nc(N)n2)cc1    > 50 µM

====

# Tested on: MDA-MB-435
# procedureText: NCI tumour cell line growth inhibition, 48 h
valueType: TGI

CN=C(N)c1ccc(N=C(N)c2ccc(-c3ccc(C(N)=Nc4ccc(C(N)=NC)cc4)cc3)cc2)cc1    > 100 µM
O=[N+]([O-])C(=C/c1ccccc1)/C(=C\c1ccccc1)[N+](=O)[O-]    30.3 µM
COc1cnc2c(c1)C(=O)c1c-2n(CCCNC2=NCCS2)c(=O)c2cc(F)ccc12    2.37 µM
Brc1ccc(C2C3CSc4ccccc4C3=NN2c2ccccc2)cc1 (centres undefined)    > 100 µM

====

# Tested on: SF-268 CNS
# procedureText: NCI tumour cell line growth inhibition, 48 h
valueType: TGI

CC(=O)Nc1ccc(C(=O)CCl)cc1    29.5 µM
Clc1ccc(Cl)c(N=Nc2cc3c4c(c2)CCN4CCC3)c1    > 10 µM
CCCCN(CCCC)C(=O)[C@H](CC)[C@@H]1CC[C@@H](C)[C@@H]([C@H](C)[C@@H](O)[C@@H](C)C(=O)[C@H](CC)C2O[C@]3(C=C[C@@H](O)[C@]4(CC[C@@](C)([C@H]5CC[C@](O)(CC)[C@H](C)O5)O4)O3)[C@H](C)C[C@@H]2C)O1 (some centres undefined)    > 100 µM
CC(C)(C)c1cc(CCC(=O)Nc2ccc(Cl)cc2)[nH]c(=S)n1    > 100 µM
O=C1N=C2SC=C(NC(=S)Nc3ccccc3)N2NC12c1ccccc1-c1ccccc12    > 10 µM
COC1C2C[C@@H](O)CCC2C(C(=O)OCCl)C[C@H]1O (some centres undefined)    > 100 µM
COc1cc(-c2cc(/C=C/C(=O)c3ccc(F)c(F)c3)[nH]n2)cc(OC)c1OC    > 100 µM
CCNC(=O)C(C)C1CCC2(C)C=CC(=O)C(C)=C2C1O (centres undefined)    > 100 µM
COc1ccc2[nH]c3c(c2c1)[C@H](c1ccccc1)C[C@@H]1C(=O)N(c2ccccc2)C(=O)[C@H]31    > 100 µM
O=c1[nH]/c(=C/c2ccc3c(c2)OCO3)c(=O)[nH]/c1=C/c1ccc2c(c1)OCO2    > 10 µM
COc1cc(/C=C/C(=O)c2cccc(-n3cc(-c4cc(OC)c(OC)c(OC)c4)[nH]c3=O)c2)cc(OC)c1OC    7.47 µM
CCCCCCCC/C=C1\CCC(CN(C)C)C1=O (centres undefined)    21.2 µM
CC1(C)OP(=O)(c2ccccc2)C=C1Sc1ccc([N+](=O)[O-])cc1[N+](=O)[O-] (centres undefined)    > 100 µM
O=C1c2ccccc2C(=O)c2cc3c(cc21)CS(=O)C3    > 100 µM
